Recorded ELISA (OD450) values for a group of binders are listed next.
experimental_system: Negative control (amino acid sequence shown in SEQ ID NO: 2 in CN106046152A)
protocol_description: ELISA, negative control well, TG1 supernatant
Report the figure in OD450 without appending any unit label.

Illustrative cases are given below, each with its answer.
M191 (VHH) VHH: QVQLVESGGGLVQAGGSLRLSCAASASMGSISNMGWYRQAPGKERGNERNLVATIGSDGRTYYADSVKGRFTISRDNVKNTMILQMNFLKPEDTAMYYCAVEDRQRPGTENYYWGQGTQVTVSS: 0.0074
M2339 (VHH) VHH: QLQLGASGGGLVQPGGSLRLSCALSGFTLRELDEFAIGWFRQAPGKEREGVSCISGTGGITHYADSVKGRFTISRDIAKTTVYLQMNSLNSEDTAVYYCAADERCTDRLIRPPTYWGQGTQVTVSS: 0.0479
M004 (VHH) VHH: EVQLVESGGGLVQAGGSLRLSCAASESISSIAYMGWYRRISEKERNLVATISSTGSTYYADSVKGRFTISRDNAKNTMYLQMNRLKPEDTAIYYCAASNKAYNDYDPDWGQGTQVTVSS: 0.0085

Prompt: Return reported ELISA (OD450); argument: M119 (VHH) VHH: EVQLVESGGGLVQPGGSLRLSCVASGSDLSFDAMGWYRQFSATVRERQLVVATSRDGRIYYGDSVKGRFTASRDNLKNSVDLEMNNLKPEDTAIYYCAAGDDPKNYDWGPGTQVTVSS
Response: 0.0071

Prompt: Repeat for the following binder: M169 (VHH) VHH: EVQLVESGGGTVQPGESLRLSCEASGAVSTINAMGWYRQTPEMRKLVATMGSGGNTYYADSVKGRFTISRDFAGNTVDLQMNDLKPEDTGVYFCAADKFGADIKEVAYWGKGTLVTVSS
Response: 0.007

Prompt: Repeat for the following binder: M010 (VHH) VHH: QVQLVESGGGLVQAGGSLRLSCAASGSVSSINAMGWYRQGTGEVRKLVATMGSGGNTYYADSVKGRFFITRDYSKNTVSLQMNNLTPEDSATYYCAADRFGASIHEVDYWGKGTLVTVSS
Response: 0.007

Prompt: Repeat for the following binder: M012 (VHH) VHH: QVQLVESGGDLVQTGGSLRLSCVVSGSTFAINAMGWYRQAPGKERELVAAISSGGDSTHYADDVKGRFTISRDNAENTMYLQMKSLKPEDTAVYVCNARGCRDFHNPQALCVLRDYWGQGTQVTVSS
Response: 0.0075

Prompt: Repeat for the following binder: M126 (VHH) VHH: EVQLVESGGGWVQSGGSLRLACAASGDSFGLNVVGWYRLAPDKQRELVASIGNGGRTTDYADSVKGRFTISSDNAKNTVFLQMNDLKPEDTAMYYCHLRVSVTEGYWGQGTQVTVSS
Response: 0.0068

All figures here come from patent US20240190986A1.
